Biological target: human Autotaxin protein (Homo sapiens, UniProt Q13822)
Assay: Evaluation of the inhibitory activity against human Autotaxin protein (18:1 LysoPC substrate, choline assay kit, absorbance at 570 nm)
Type: biochemical
Conditions: compound at 500nM; 2 hours at 37 °C; % inhibition = (1 - absorbance test group / absorbance control group) X 100
readout: inhibition at 0.5 µM (%)

* c1cc2c(cn1)CC(Nc1ncc(-c3nnc(N4CC(c5c[nH]nn5)C4)o3)cn1)C2 (stereo not shown) | 19.8
* Fc1cc2c(cc1F)CC(Nc1ncc(-c3nnc(N4CC(c5nnc(C(F)F)o5)C4)o3)cn1)C2 | 1
* Cc1[nH]nnc1C1CN(c2nnc(-c3cnc(NC4Cc5cc(F)c(F)cc5C4)nc3)o2)C1 | 84.6
* Fc1ccc2c(c1)CC(Nc1ncc(-c3nnc(N4CCC(c5c[nH]nn5)C4)o3)cn1)C2 (stereo not shown) | 97.4

* * *

Target: human Autotaxin protein (Homo sapiens, UniProt Q13822)
Assay: Evaluation of the inhibitory activity against human Autotaxin protein (18:1 LysoPC substrate, choline assay kit, absorbance at 570 nm)
Assay type: biochemical
Settings: compound at 500nM; 2 hours at 37 °C; % inhibition = (1 - absorbance test group / absorbance control group) X 100
Description: Solutions of each compound synthesized (80 uM, 100% dimethyl sulfoxide) were sequentially diluted 5-fold with dimethyl sulfoxide to prepare 6 concentrations. […] The absorbance value was measured at a wavelength of 570 nm using a SpectraMax iD3 microplate reader. The percentage inhibition activity value (% inhibition) was calculated by the formula: (1 - absorbance value test group / absorbance value control group) X 100.
Respond with Condition met for inhibition at 0.5 µM values of 40% and above, Condition not met for values below.

* COc1ccc2c(c1)CC(Nc1ncc(-c3nnc(N4CCC(c5cn(COC(=O)C(C)(C)C)nn5)C4)o3)cn1)C2 (stereo not shown) | Condition not met
* Fc1cc2c(cc1F)CC(Nc1ncc(-c3nnc(N4CC(c5nnn[nH]5)C4)o3)cn1)C2 | Condition not met
* CC(C)(C)C(=O)OCn1cc(C2CN(c3nnc(-c4cnc(NC5Cc6ccc(Br)cc6C5)nc4)o3)C2)nn1 (stereo not shown) | Condition not met
* Fc1cc2c(cc1F)CC(Nc1ncc(-c3nnc(N4CCC(c5c[nH]cn5)C4)o3)cn1)C2 (stereo not shown) | Condition met
* CC1(c2c[nH]nn2)CCN(c2nnc(-c3cnc(NC4Cc5ccccc5C4)nc3)o2)C1 (stereo not shown) | Condition met
* CC1(c2c[nH]nn2)CCN(C(=O)/C=C/c2cnc(NC3Cc4ccccc4C3)nc2)C1 (stereo not shown) | Condition met
* Fc1cc2c(cc1F)CC(Nc1ncc(C3CC(N4CC(c5c[nH]nn5)C4)=NO3)cn1)C2 (stereo not shown) | Condition not met
* Clc1ccc(CCNc2ncc(-c3nnc(N4CCC(c5c[nH]nn5)C4)o3)cn2)cc1 (stereo not shown) | Condition met
* CC(C)(C)C(=O)OCn1cc(C2CCN(c3nnc(-c4cnc(NC5Cc6cccnc6C5)nc4)o3)C2)nn1 (stereo not shown) | Condition not met
* Brc1ccc2c(c1)CC(Nc1ncc(-c3nnc(N4CCC(c5c[nH]nn5)C4)o3)cn1)C2 (stereo not shown) | Condition met
* CC1(c2c[nH]nn2)CN(C(=O)/C=C/c2cnc(NC3Cc4ccccc4C3)nc2)C1 | Condition met
* Cc1nc(NC2Cc3cc(F)c(F)cc3C2)ncc1-c1nnc(N2CC(c3c[nH]nn3)C2)o1 | Condition met
* O=C(/C=C/c1cnc(NC2Cc3cc(F)c(F)cc3C2)nc1)N1CCC(c2c[nH]nn2)C1 (stereo not shown) | Condition met
* O=C(CCc1cnc(NC2Cc3cc(F)c(F)cc3C2)nc1)N1CC(c2c[nH]nn2)C1 | Condition met
* Clc1ccc2c(c1)CC(Nc1ncc(-c3nnc(N4CCC(c5c[nH]nn5)C4)o3)cn1)C2 (stereo not shown) | Condition met
* CS(=O)(=O)OC1CCN(c2nnc(-c3cnc(NC4Cc5cc(F)c(F)cc5C4)nc3)o2)C1 (stereo not shown) | Condition not met
* Clc1cc(Cl)cc(CCNc2ncc(-c3nnc(N4CCC(c5c[nH]nn5)C4)o3)cn2)c1 (stereo not shown) | Condition met
* O=c1[nH]nc(C2CN(c3nnc(-c4cnc(NC5Cc6cc(F)c(F)cc6C5)nc4)o3)C2)o1 | Condition not met
* COc1ccc2c(c1)CC(Nc1ncc(-c3nnc(N4CCC(c5c[nH]nn5)C4)o3)cn1)C2 (stereo not shown) | Condition met
* Fc1cc2c(cc1F)CC(Nc1ncc(-c3nnc(N4CC(c5c[nH]cn5)C4)o3)cn1)C2 | Condition met
* FC1(c2c[nH]nn2)CN(c2nnc(-c3cnc(NC4Cc5ccccc5C4)nc3)o2)C1 | Condition met
* CC1(c2c[nH]nn2)CCN(c2nnc(-c3cnc(NC4Cc5cc(F)c(F)cc5C4)nc3)o2)C1 (stereo not shown) | Condition met
* c1cnc2c(n1)CC(Nc1ncc(-c3nnc(N4CCC(c5c[nH]nn5)C4)o3)cn1)C2 (stereo not shown) | Condition not met
* COC(=O)CC1CN(c2nnc(-c3cnc(NC4Cc5cc(F)c(F)cc5C4)nc3)o2)C1 | Condition not met
* CS(=O)(=O)OC1CN(c2nnc(-c3cnc(NC4Cc5cc(F)c(F)cc5C4)nc3)o2)C1 | Condition not met
* CC1(c2c[nH]nn2)CCN(c2nnc(-c3cnc(NCCc4cc(Cl)cc(Cl)c4)nc3)o2)C1 (stereo not shown) | Condition not met
* Cn1nncc1C1CN(c2nnc(-c3cnc(NC4Cc5cc(F)c(F)cc5C4)nc3)o2)C1 | Condition met
* O=C(O)CC1CN(c2nnc(-c3cnc(NC4Cc5cc(F)c(F)cc5C4)nc3)o2)C1 | Condition not met
* CC1(c2c[nH]nn2)CN(c2nnc(-c3cnc(NC4Cc5cc(F)c(F)cc5C4)nc3)o2)C1 | Condition met
* FC1(c2c[nH]nn2)CN(c2nnc(-c3cnc(NC4Cc5ccc(Br)cc5C4)nc3)o2)C1 (stereo not shown) | Condition met

* * *

Target: human Autotaxin protein (Homo sapiens, UniProt Q13822)
Assay: Evaluation of the inhibitory activity against human Autotaxin protein (18:1 LysoPC substrate, choline assay kit, absorbance at 570 nm)
Type: biochemical
Settings: compound at 500nM; 2 hours at 37 °C; % inhibition = (1 - absorbance test group / absorbance control group) X 100
Below, each entry is listed alongside its reported inhibition at 0.5 µM.
readout: inhibition at 0.5 µM (%)

* O=C(O)CC1CCN(c2nnc(-c3cnc(NC4Cc5cc(F)c(F)cc5C4)nc3)o2)C1 (stereo not shown) | 1.8
* Brc1ccc2c(c1)CC(Nc1ncc(-c3nnc(N4CC(c5c[nH]nn5)C4)o3)cn1)C2 (stereo not shown) | 100
* Cc1ncn(C2CCN(c3nnc(-c4cnc(NC5Cc6cc(F)c(F)cc6C5)nc4)o3)C2)n1 (stereo not shown) | 9.2
* Cc1nc(NC2Cc3cc(F)c(F)cc3C2)ncc1-c1nnc(N2CCC(c3c[nH]nn3)C2)o1 (stereo not shown) | 88.1
* Cc1ncn(C2CN(c3nnc(-c4cnc(NC5Cc6cc(F)c(F)cc6C5)nc4)o3)C2)n1 | 10.4
* COC(=O)C1CN(c2nnc(-c3cnc(NC4Cc5cc(F)c(F)cc5C4)nc3)o2)C1 | 7.5
* Fc1cc2c(cc1F)CC(Nc1ncc(-c3nnc(N4CCC(n5cncn5)C4)o3)cn1)C2 (stereo not shown) | 10.9

* * *

Molecular target: human Autotaxin protein (Homo sapiens, UniProt Q13822)
Assay: Evaluation of the inhibitory activity against human Autotaxin protein (18:1 LysoPC substrate, choline assay kit, absorbance at 570 nm)
Type: biochemical
Details: compound at 500nM; 2 hours at 37 °C; % inhibition = (1 - absorbance test group / absorbance control group) X 100
Outcome label depends on inhibition at 0.5 µM relative to 10%: at/above gives true (1), below gives false (0).

- O=C(CCc1cnc(NC2Cc3cc(F)c(F)cc3C2)nc1)N1CCC(c2c[nH]nn2)C1 (stereo not shown) [Example 10]: true (1)
- CC1(c2c[nH]nn2)CCN(c2nnc(-c3cnc(NCc4cc(F)cc(F)c4)nc3)o2)C1 (stereo not shown) [Example 33]: true (1)
- CC1(c2c[nH]nn2)CN(C(=O)/C=C/c2cnc(NC3Cc4cc(F)c(F)cc4C3)nc2)C1 [Example 78]: true (1)
- Fc1cc2c(cc1F)CC(Nc1ncc(-c3nnc(N4CC(c5nnc(C(F)(F)F)o5)C4)o3)cn1)C2 [Example 58]: false (0)
- O=C(/C=C/c1cnc(NC2Cc3ccccc3C2)nc1)N1CCC(c2c[nH]nn2)C1 (stereo not shown) [Example 20]: true (1)
- c1ccc2c(c1)CC(Nc1ncc(-c3nnc(N4CC(c5c[nH]nn5)C4)o3)cn1)C2 [Example 42]: true (1)
- CC(C)(C)C(=O)OCn1cc(C2CN(c3nnc(-c4cnc(NC5Cc6ccc(F)cc6C5)nc4)o3)C2)nn1 (stereo not shown) [Example 63]: false (0)
- OC1CCN(c2nnc(-c3cnc(NC4Cc5cc(F)c(F)cc5C4)nc3)o2)C1 (stereo not shown) [Example 26]: false (0)
- Cn1cc(C2CCN(c3nnc(-c4cnc(NC5Cc6cc(F)c(F)cc6C5)nc4)o3)C2)nn1 (stereo not shown) [Example 35]: false (0)
- Clc1cc(Cl)cc(CCNc2ncc(-c3nnc(N4CC(c5c[nH]nn5)C4)o3)cn2)c1 [Example 59]: true (1)
- COC(=O)C1CCN(c2nnc(-c3cnc(NC4Cc5cc(F)c(F)cc5C4)nc3)o2)C1 (stereo not shown) [Example 15]: false (0)
- O=C(CCCc1nnc(NC2Cc3cc(F)c(F)cc3C2)o1)N1CC(c2c[nH]nn2)C1 [Example 90]: true (1)
- COC(=O)CC1CCN(c2nnc(-c3cnc(NC4Cc5cc(F)c(F)cc5C4)nc3)o2)C1 (stereo not shown) [Example 24]: false (0)
- Fc1cc2c(cc1F)CC(Nc1ncc(C3CC(N4CCC(c5c[nH]nn5)C4)=NO3)cn1)C2 (stereo not shown) [Example 17]: true (1)
- c1cc2c(cc1CNc1ncc(-c3nnc(N4CC(c5c[nH]nn5)C4)o3)cn1)OCO2 [Example 87]: true (1)
- CC(C)(C)C(=O)OCn1cc(C2CCN(c3nnc(-c4cnc(NCc5ccc6c(c5)OCO6)nc4)o3)C2)nn1 (stereo not shown) [Example 5]: false (0)
- Fc1cc2c(cc1F)CC(Nc1ncc(-c3nnc(N4CC(F)(c5c[nH]nn5)C4)o3)cn1)C2 [Example 56]: true (1)
- CC(C)(C)C(=O)OCn1cc(C2CCN(c3nnc(-c4cnc(NC5Cc6cc(F)c(F)cc6C5)nc4)o3)C2)nn1 (stereo not shown) [Example 2]: false (0)
- O=C(O)C1CN(c2nnc(-c3cnc(NC4Cc5cc(F)c(F)cc5C4)nc3)o2)C1 [Example 50]: true (1)
- c1cnc2c(c1)CC(Nc1ncc(-c3nnc(N4CC(c5c[nH]nn5)C4)o3)cn1)C2 (stereo not shown) [Example 77]: true (1)
- COc1ccc2c(c1)CC(Nc1ncc(-c3nnc(N4CC(c5cn(COC(=O)C(C)(C)C)nn5)C4)o3)cn1)C2 (stereo not shown) [Example 70]: false (0)
- O=C(O)C1CCN(c2nnc(-c3cnc(NC4Cc5cc(F)c(F)cc5C4)nc3)o2)C1 (stereo not shown) [Example 22]: false (0)
- O=C(/C=C/c1cnc(NC2Cc3cc(F)c(F)cc3C2)nc1)N1CC(c2c[nH]nn2)C1 [Example 40]: true (1)
- Fc1cc2c(cc1F)CC(Nc1ncc(-c3nnc(N4CC(n5cncn5)C4)o3)cn1)C2 [Example 79]: true (1)
- CC(C)(C)C(=O)OCn1cc(C2CN(c3nnc(-c4cnc(NC5Cc6ccncc6C5)nc4)o3)C2)nn1 (stereo not shown) [Example 84]: false (0)
- N#CC1CN(c2nnc(-c3cnc(NC4Cc5cc(F)c(F)cc5C4)nc3)o2)C1 [Example 57]: false (0)
- c1ccc2c(c1)CC(Nc1ncc(-c3nnc(N4CCC(c5c[nH]nn5)C4)o3)cn1)C2 (stereo not shown) [Example 1]: true (1)
- Fc1cc2c(cc1F)CC(Nc1cnc(-c3nnc(N4CCC(c5c[nH]nn5)C4)o3)cn1)C2 (stereo not shown) [Example 14]: true (1)
- COc1ccc2c(c1)CC(Nc1ncc(-c3nnc(N4CC(c5c[nH]nn5)C4)o3)cn1)C2 (stereo not shown) [Example 71]: true (1)
- Fc1cc2c(cc1F)CC(Nc1ncc(-c3cc(N4CCC(c5c[nH]nn5)C4)no3)cn1)C2 (stereo not shown) [Example 18]: true (1)
- Fc1cc2c(cc1F)CC(Nc1ncc(-c3nnc(N4CC(N5CCOCC5)C4)o3)cn1)C2 [Example 81]: false (0)
